B1: TRIM55 (parent)
chain: YLPTRGGTTMASGGRFRCPSCRHE

Variants of: B1
testProtocol: protein stability index of a GFP-peptide fusion (GPS, HEK-293T) (PSI 1-6); higher = more stable;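 note: lentivirally expressed fusions sorted by FACS into six bins by GFP to DsRed ratio, PSI derived from sequencing read proportions per bin multiplied by bin number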
conditionSummary: c terminus: a fixed tail appended
Could you please report measured protein stability index for the items listed next?
Numbers only.

>>> df
                         residues  measuredresult
0  YLRTRGGTTMASGGRFRCPSCRHE [P3R]            3.49
1  YLPTRGQTTMASGGRFRCPSCRHE [G7Q]            2.24
2  YLPTRGGTFMASGGRFRCPSCRHE [T9F]            2.12

Record protein stability index per entry; entries follow.
1. YLPTRGGTTMASGGSFRCPSCRHE [R15S]
2. YLPTRGGTTMASGGRFRCPSLRHE [C21L]

a:
1: 1.65; 2: 2.86

Record protein stability index per entry; entries follow.
1. DLPTRGGTTMASGGRFRCPSCRHE [Y1D]
2. YLPTRGGTTMASGGQFRCPSCRHE [R15Q]
3. YLPTRGGNTMASGGRFRCPSCRHE [T8N]
4. YLPTRGGTTMASGGRFRCPQCRHE [S20Q]
5. YLPTRGGTTMASGGRFRCPSERHE [C21E]
6. YLPTRYGTTMASGGRFRCPSCRHE [G6Y]

a:
1: 2.15; 2: 1.58; 3: 1.98; 4: 1.8; 5: 4.03; 6: 1.37

Record protein stability index per entry; entries follow.
1. YLPTRGGVTMASGGRFRCPSCRHE [T8V]
2. YLPTRGGTTMASHGRFRCPSCRHE [G13H]

a:
2.03
2.62

Record protein stability index per entry; entries follow.
1. YLPTRGGTTMASGGRFRCPGCRHE [S20G]
2. YLPTRGGTTMASGGRFICPSCRHE [R17I]
3. YLPTRGGTTMASGGRFRCPSCEHE [R22E]
4. YLPTRGGTTMASGGRFRCPSCSHE [R22S]
5. YLPTRGGTTMISGGRFRCPSCRHE [A11I]
6. YLPTRGGTTMASGQRFRCPSCRHE [G14Q]

a:
[1.92, 1.69, 4.06, 3.2, 1.05, 1.26]
